Just for reference, paper PMC8625065 is where these values come from.

- Test Target: p(dAdT)2 (AT-DNA)
- Protocol Details: Fluorimetric titration, Scatchard processing
- Format: binding
- Setup Conditions: p(dAdT)2, pH 7.0, sodium cacodylate buffer, I = 0.05 mol dm^-3
# logKs per entry

Compound: c1cc(C2=NCCN2)c2ccn(Cc3cn(-c4ccc(C5=NCCN5)cc4)nn3)c2c1 [Compound 6]
Test Target: p(dAdT)2 (AT-DNA)
logKs: 6.6

Compound: Cl.c1cnc2c(NCc3cn(-c4ccc(C5=NCCN5)cc4)nn3)cccc2c1 [Compound 8]
Test Target: p(dAdT)2 (AT-DNA)
logKs: 5.5

Compound: Cl.Cl.c1cc(C2=NCCN2)ccc1OCc1cn(-c2ccc(C3=NCCN3)cc2)nn1 [Compound 5]
Test Target: p(dAdT)2 (AT-DNA)
logKs: 6.5

Compound: Cl.c1cnc2c(OCc3cn(-c4ccc(C5=NCCN5)cc4)nn3)cccc2c1 [Compound 9]
Test Target: p(dAdT)2 (AT-DNA)
logKs: 5.8

Compound: Cl.O=c1ccc2ccc(OCc3cn(-c4ccc(C5=NCCN5)cc4)nn3)cc2o1 [Compound 11]
Test Target: p(dAdT)2 (AT-DNA)
logKs: 4.9

Compound: Cl.O=c1cc(OCc2cn(-c3ccc(C4=NCCN4)cc3)nn2)c2ccccc2o1 [Compound 10]
Test Target: p(dAdT)2 (AT-DNA)
logKs: 6.7

====

- Test Target: poly A-poly U (AU-RNA)
- Protocol Details: Fluorimetric titration, Scatchard processing
- Type: binding
- Setup Conditions: pH 7.0, sodium cacodylate buffer, I = 0.05 mol dm^-3

Compound: c1cc(C2=NCCN2)c2ccn(Cc3cn(-c4ccc(C5=NCCN5)cc4)nn3)c2c1 [Compound 6]
logKs: 4.2

Compound: Cl.O=c1ccc2ccc(OCc3cn(-c4ccc(C5=NCCN5)cc4)nn3)cc2o1 [Compound 11]
logKs: 4.9

Compound: Cl.c1cnc2c(OCc3cn(-c4ccc(C5=NCCN5)cc4)nn3)cccc2c1 [Compound 9]
logKs: 5.1

Compound: Cl.Cl.c1cc(C2=NCCN2)ccc1OCc1cn(-c2ccc(C3=NCCN3)cc2)nn1 [Compound 5]
logKs: 7.0

====

# ΔTm per entry
- System: ctDNA
- Protocol Details: Thermal melting experiment
- Type: binding, calf
- Setup Conditions: r = [compound]/[polynucleotide] = 0.3, pH 7.0, error ±0.5 °C

Compound: Cl.c1cnc2c(NCc3cn(-c4ccc(C5=NCCN5)cc4)nn3)cccc2c1 [Compound 8]
Test Target: ctDNA
ΔTm / °C: 0
--
Compound: Cl.O=c1ccc2ccc(OCc3cn(-c4ccc(C5=NCCN5)cc4)nn3)cc2o1 [Compound 11]
Test Target: ctDNA
ΔTm / °C: 0
--
Compound: Cl.O=c1cc(OCc2cn(-c3ccc(C4=NCCN4)cc3)nn2)c2ccccc2o1 [Compound 10]
Test Target: ctDNA
ΔTm / °C: 0
--
Compound: Cl.c1cnc2c(OCc3cn(-c4ccc(C5=NCCN5)cc4)nn3)cccc2c1 [Compound 9]
Test Target: ctDNA
ΔTm / °C: 1
--
Compound: N/C(=N\O)c1ccc(-n2cc(COc3cccc4ccc(/C(N)=N/O)nc34)nn2)cc1 [Compound 20]
Test Target: ctDNA
ΔTm / °C: 0
--
Compound: Cl.Cl.c1cc(C2=NCCN2)ccc1OCc1cn(-c2ccc(C3=NCCN3)cc2)nn1 [Compound 5]
Test Target: ctDNA
ΔTm / °C: 5
--
Compound: c1cc(C2=NCCN2)c2ccn(Cc3cn(-c4ccc(C5=NCCN5)cc4)nn3)c2c1 [Compound 6]
Test Target: ctDNA
ΔTm / °C: 2

====

- Tested on: HFF (human foreskin fibroblasts)
- Protocol Details: MTT proliferation assay, 72 h, non-tumor cells
- Type: cell-based
- Setup Conditions: Homo sapiens, Fibroblast; non-tumor HFF fibroblasts, MTT, 72 h
# IC50 per entry
Result Type: IC50 (µM)

Chemical Smiles: N/C(=N\O)c1ccc(-n2cc(CNc3cccc4cccnc34)nn2)cc1
Qualifier Symbol: =
Experimental Value: 9.81
--
Chemical Smiles: Cl.O=c1ccc2ccc(OCc3cn(-c4ccc(C5=NCCN5)cc4)nn3)cc2o1
Qualifier Symbol: =
Experimental Value: 3.14
--
Chemical Smiles: Cl.c1cnc2c(OCc3cn(-c4ccc(C5=NCCN5)cc4)nn3)cccc2c1
Qualifier Symbol: <
Experimental Value: 0.01
--
Chemical Smiles: Cl.c1cnc2c(NCc3cn(-c4ccc(C5=NCCN5)cc4)nn3)cccc2c1
Qualifier Symbol: =
Experimental Value: 11.7
--
Chemical Smiles: c1cc(C2=NCCN2)c2ccn(Cc3cn(-c4ccc(C5=NCCN5)cc4)nn3)c2c1
Qualifier Symbol: <
Experimental Value: 0.01
--
Chemical Smiles: Cl.O=c1cc(OCc2cn(-c3ccc(C4=NCCN4)cc3)nn2)c2ccccc2o1
Qualifier Symbol: <
Experimental Value: 0.01
--
Chemical Smiles: Cl.Cl.c1cc(C2=NCCN2)ccc1OCc1cn(-c2ccc(C3=NCCN3)cc2)nn1
Qualifier Symbol: <
Experimental Value: 0.01

====

- System: HeLa (cervical carcinoma)
- Protocol Details: MTT proliferation assay, 72 h
- Format: cell-based, human
- Setup Conditions: Homo sapiens; HeLa cells, MTT, 72 h
# IC50 per entry
Result Type: IC50 (µM)

Compound: N/C(=N\O)c1ccc(OCc2cn(-c3ccc(/C(N)=N/O)cc3)nn2)cc1
Qualifier Symbol: >
Experimental Value: 100

Compound: O=c1[nH]cc(F)c(=O)[nH]1 [Compound 5-FU, 5-Fluorouracil, reference compound]
Qualifier Symbol: =
Experimental Value: 8.81

Compound: c1cc(C2=NCCN2)c2ccn(Cc3cn(-c4ccc(C5=NCCN5)cc4)nn3)c2c1
Qualifier Symbol: =
Experimental Value: 13.5

====

- System: SW620 (colorectal adenocarcinoma, metastatic)
- Protocol Details: MTT proliferation assay, 72 h
- Assay type: cell-based, human
- Setup Conditions: Homo sapiens, SW-620; SW620 cells, MTT, 72 h
Result Type: log10(IC50) (log10 of the value in µM)

Molecule: N#Cc1ccc(NCc2cn(-c3ccc(/C(N)=N/O)cc3)nn2)cc1 [Compound 12]
Result Type: log10(IC50)
Experimental Value: 1.81
//
Molecule: Cl.Cl.c1cc(C2=NCCN2)ccc1NCc1cn(-c2ccc(C3=NCCN3)cc2)nn1 [Compound 4]
Result Type: log10(IC50)
Experimental Value: 1.79
//
Molecule: c1cc(C2=NCCN2)c2ccn(Cc3cn(-c4ccc(C5=NCCN5)cc4)nn3)c2c1 [Compound 6]
Result Type: log10(IC50)
Experimental Value: 1.26
//
Molecule: N/C(=N\O)c1ccc(-n2cc(COc3cccc4ccc(/C(N)=N/O)nc34)nn2)cc1 [Compound 20]
Result Type: log10(IC50)
Experimental Value: 0.86
//
Molecule: Cl.c1cnc2c(NCc3cn(-c4ccc(C5=NCCN5)cc4)nn3)cccc2c1 [Compound 8]
Result Type: log10(IC50)
Experimental Value: 1.55
//
Molecule: c1cc(-n2cc(Cn3ccc4cc(C5=NCCN5)ccc43)nn2)ccc1C1=NCCN1 [Compound 7]
Result Type: log10(IC50)
Experimental Value: 1.70
//
Molecule: Cl.O=c1cc(OCc2cn(-c3ccc(C4=NCCN4)cc3)nn2)c2ccccc2o1 [Compound 10]
Result Type: log10(IC50)
Experimental Value: 0.24
//
Molecule: Cl.Cl.c1cc(C2=NCCN2)ccc1OCc1cn(-c2ccc(C3=NCCN3)cc2)nn1 [Compound 5]
Result Type: log10(IC50)
Experimental Value: -0.66

====

- System: HeLa (cervical carcinoma)
- Protocol Details: MTT proliferation assay, 72 h
- Assay type: cell-based, human
- Setup Conditions: Homo sapiens; HeLa cells, MTT, 72 h
# log10(IC50) per entry
Result Type: log10(IC50) (log10 of the value in µM)

Chemical Smiles: Cl.c1cnc2c(OCc3cn(-c4ccc(C5=NCCN5)cc4)nn3)cccc2c1
Test Target: HeLa (cervical carcinoma)
log10(IC50): 1.01
--
Chemical Smiles: Cl.O=c1cc(OCc2cn(-c3ccc(C4=NCCN4)cc3)nn2)c2ccccc2o1
Test Target: HeLa (cervical carcinoma)
log10(IC50): 0.28
--
Chemical Smiles: Cl.Cl.c1cc(C2=NCCN2)ccc1OCc1cn(-c2ccc(C3=NCCN3)cc2)nn1
Test Target: HeLa (cervical carcinoma)
log10(IC50): -0.10
--
Chemical Smiles: N#Cc1cccc2c1ccn2Cc1cn(-c2ccc(/C(N)=N/O)cc2)nn1
Test Target: HeLa (cervical carcinoma)
log10(IC50): 1.82
--
Chemical Smiles: N/C(=N\O)c1ccc(-n2cc(COc3cccc4cccnc34)nn2)cc1
Test Target: HeLa (cervical carcinoma)
log10(IC50): 1.81
--
Chemical Smiles: N/C(=N\O)c1ccc(-n2cc(CNc3cccc4cccnc34)nn2)cc1
Test Target: HeLa (cervical carcinoma)
log10(IC50): 1.41
--
Chemical Smiles: N/C(=N\O)c1ccc(-n2cc(COc3cccc4ccc(/C(N)=N/O)nc34)nn2)cc1
Test Target: HeLa (cervical carcinoma)
log10(IC50): 0.85
--
Chemical Smiles: Cl.Cl.c1cc(C2=NCCN2)ccc1NCc1cn(-c2ccc(C3=NCCN3)cc2)nn1
Test Target: HeLa (cervical carcinoma)
log10(IC50): 1.61
--
Chemical Smiles: N/C(=N\O)c1ccc(-n2cc(COc3cc(=O)oc4ccccc34)nn2)cc1
Test Target: HeLa (cervical carcinoma)
log10(IC50): 2.00
--
Chemical Smiles: N/C(=N\O)c1ccc(-n2cc(Cn3ccc4cc(/C(N)=N/O)ccc43)nn2)cc1
Test Target: HeLa (cervical carcinoma)
log10(IC50): 1.78
--
Chemical Smiles: N/C(=N\O)c1ccc(-n2cc(COc3ccc4ccc(=O)oc4c3)nn2)cc1
Test Target: HeLa (cervical carcinoma)
log10(IC50): 1.94
--
Chemical Smiles: Cl.c1cnc2c(NCc3cn(-c4ccc(C5=NCCN5)cc4)nn3)cccc2c1
Test Target: HeLa (cervical carcinoma)
log10(IC50): 1.38
--
Chemical Smiles: Cl.O=c1ccc2ccc(OCc3cn(-c4ccc(C5=NCCN5)cc4)nn3)cc2o1
Test Target: HeLa (cervical carcinoma)
log10(IC50): 0.33
